The reported measurements were obtained from patent US20240239752A1.

biological target: recombinant human KLK5 (Homo sapiens, UniProt Q9Y337); test: Kallikrein (KLK) 5 enzymatic assay (Boc-VPR-AMC fluorogenic substrate); settings: recombinant human KLK5 0.1 μg/well, Boc-VPR-AMC 100 μM, pH 7.5, room temperature, 1% DMSO; tested a minimum of three times
Sequence (Q9Y337 23-293): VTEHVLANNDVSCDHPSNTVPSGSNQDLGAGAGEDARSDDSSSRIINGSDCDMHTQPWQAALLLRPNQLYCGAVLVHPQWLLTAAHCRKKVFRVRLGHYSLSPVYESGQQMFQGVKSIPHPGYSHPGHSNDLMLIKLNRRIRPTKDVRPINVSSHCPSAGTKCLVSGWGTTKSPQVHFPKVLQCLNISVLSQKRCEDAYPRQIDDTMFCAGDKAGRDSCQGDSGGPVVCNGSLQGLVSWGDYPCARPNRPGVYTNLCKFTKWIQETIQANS
REPORTED_ENDPOINT: IC50

[
  {
    "COMPOUND": "CC(C)n1nc(COc2ccccc2CC(=O)O)c2cc(-c3ccc4cc(N)ccc4c3)ccc21 [Compound 36c]",
    "MEASURED": "> 10000 nM"
  },
  {
    "COMPOUND": "COCCN1CC[C@H](n2nc3ccc(-c4cccc5c(N)nccc45)cc3c2COc2ccccc2CC(=O)O)C1 [Compound 117c]",
    "MEASURED": "1000 to 10000 nM"
  },
  {
    "COMPOUND": "CCCN1CCC2(CC1)C[C@@H](Oc1ccccc1CC(=O)O)c1cc(-c3ccc4ccnc(N)c4c3)ccc12 [Compound 416c]",
    "MEASURED": "< 1000 nM"
  },
  {
    "COMPOUND": "CCOC(=O)N1CC[C@@H](n2nc(COc3ccccc3CC(=O)O)c3cc(-c4cccc5c(N)nccc45)ccc32)C1 [Compound 340i]",
    "MEASURED": "< 1000 nM"
  },
  {
    "COMPOUND": "COc1c(C(=N)N)cccc1-c1ccc2c(c1)c(COc1ccccc1CC(=O)O)nn2C(C)C [Compound 84f]",
    "MEASURED": "< 1000 nM"
  },
  {
    "COMPOUND": "CCS(=O)(=O)N1CC(n2nc3ccc(-c4cccc5c(N)nccc45)cc3c2COc2ccccc2CC(=O)O)C1 [Compound 130c]",
    "MEASURED": "< 1000 nM"
  },
  {
    "COMPOUND": "Cc1cccc(OCc2nn(C3CCC3)c3ccc(-c4ccc5ccnc(N)c5c4)cc23)c1CC(=O)O [Compound 161c]",
    "MEASURED": "< 1000 nM"
  }
]

---

pIC50 values by entry
biological target: recombinant human KLK5 (Homo sapiens, UniProt Q9Y337); test: Kallikrein (KLK) 5 enzymatic assay (Boc-VPR-AMC fluorogenic substrate); details: recombinant human KLK5 0.1 μg/well, Boc-VPR-AMC 100 μM, pH 7.5, room temperature, 1% DMSO; tested a minimum of three times
pIC50: −log10 of the molar value.
REPORTED_ENDPOINT: pIC50

[
  {
    "MOLECULE": "Nc1nccc2c(-c3ccc4c(c3)[C@@H](Oc3ccccc3CC(=O)O)CC4)cccc12 [Compound 222b]",
    "MEASURED": "5.00 to 6.00"
  },
  {
    "MOLECULE": "Cc1ccc(CC(=O)O)c(OCc2nn(C)c3ccc(-c4cccc(C(=N)N)c4)cc23)c1 [Compound 104d]",
    "MEASURED": "> 6.00"
  },
  {
    "MOLECULE": "COc1c(-c2cc3c(COc4ccccc4CC(=O)O)cccc3o2)ccnc1CN [Compound 329d]",
    "MEASURED": "5.00 to 6.00"
  },
  {
    "MOLECULE": "CCC(CC)n1nc(COc2ccccc2CC(=O)O)c2cc(-c3ccc4ccnc(N)c4c3)ccc21 [Compound 110e]",
    "MEASURED": "> 6.00"
  },
  {
    "MOLECULE": "N=C(N)c1cccc(-c2ccc3c(c2)c(COc2ccccc2CC(=O)O)nn3CC2CCC2)c1 [Compound 254c]",
    "MEASURED": "> 6.00"
  },
  {
    "MOLECULE": "COC(=O)N1CCC2(CC1)CC(Oc1cc(F)ccc1CC(=O)O)c1cc(-c3cccc4c(N)nccc34)ccc12 (stereo not drawn) [Compound 409b]",
    "MEASURED": "> 6.00"
  },
  {
    "MOLECULE": "Nc1nccc2c(-c3ccc4c(c3)c(COc3ccccc3CC(=O)O)cn4C3CCOC3)cccc12 (stereo not drawn) [Compound 458f]",
    "MEASURED": "> 6.00"
  },
  {
    "MOLECULE": "N=C(N)c1cccc(-c2ccc3c(c2)c(COc2ccccc2CC(=O)O)nn3C2CCC2)c1 [Compound 28d]",
    "MEASURED": "> 6.00"
  },
  {
    "MOLECULE": "CC(C(=O)O)c1ccccc1OCc1nn(C2CCOC2)c2ccc(-c3ccc4ccnc(N)c4c3)cc12 (stereo not drawn) [Compound 242b]",
    "MEASURED": "> 6.00"
  },
  {
    "MOLECULE": "COCCn1nc(COc2ccccc2CC(=O)O)c2cc(-c3ccc4ccnc(N)c4c3)ccc21 [Compound 111e]",
    "MEASURED": "> 6.00"
  },
  {
    "MOLECULE": "CC(C)COC(=O)N1CC[C@@H](n2nc(COc3ccccc3CC(=O)O)c3cc(-c4cccc5c(N)nccc45)ccc32)C1 [Compound 365b]",
    "MEASURED": "> 6.00"
  },
  {
    "MOLECULE": "Cn1nc(COc2ccccc2CC(=O)O)c2cc(-c3ccc4ccnc(N)c4c3)ccc21 [Compound 57b]",
    "MEASURED": "> 6.00"
  },
  {
    "MOLECULE": "Nc1nccc2c(-c3ccc4c(c3)c(COc3ccccc3CC(=O)O)nn4CC3CC3)cccc12 [Compound 251c]",
    "MEASURED": "> 6.00"
  },
  {
    "MOLECULE": "CCC(=O)N1CCC2(CC1)CC(Oc1ccccc1CC(=O)O)c1cc(-c3ccc4ccnc(N)c4c3)ccc12 (stereo not drawn) [Compound 386b]",
    "MEASURED": "> 6.00"
  },
  {
    "MOLECULE": "CC(C)CCN1CC(n2nc3ccc(-c4ccc5ccnc(N)c5c4)cc3c2COc2ccccc2CC(=O)O)C1 [Compound 124b]",
    "MEASURED": "5.00 to 6.00"
  },
  {
    "MOLECULE": "CC(C)n1nc(COc2ccccc2CC(=O)O)c2cc(-c3ccnc4c(N)cccc34)ccc21 [Compound 53c]",
    "MEASURED": "< 5.00"
  },
  {
    "MOLECULE": "CCOC(=O)N1CCC(n2nc(COc3ccccc3CC(=O)O)c3cc(-c4cccc5c(N)nccc45)ccc32)C1 (stereo not drawn) [Compound 311b]",
    "MEASURED": "> 6.00"
  },
  {
    "MOLECULE": "N#Cc1cc(-c2cccc3c(N)nccc23)cc2c(COc3ccccc3CC(=O)O)nn(C3CCCCO3)c12 (stereo not drawn) [Compound 108c]",
    "MEASURED": "> 6.00"
  },
  {
    "MOLECULE": "Cc1ccc(OCc2nn(C3CCC3)c3ccc(-c4ccc5ccnc(N)c5c4)cc23)c(CC(=O)O)c1 [Compound 164c]",
    "MEASURED": "5.00 to 6.00"
  },
  {
    "MOLECULE": "Cc1cccc(OC2CC3(CCN(S(C)(=O)=O)CC3)c3ccc(-c4ccc5ccnc(N)c5c4)cc32)c1CC(=O)O (stereo not drawn) [Compound 448c]",
    "MEASURED": "> 6.00"
  },
  {
    "MOLECULE": "Cn1nc(COc2ccccc2CC(=O)O)c2cc(-c3cccc(C(=N)N)c3)ccc21 [Compound 4e]",
    "MEASURED": "> 6.00"
  },
  {
    "MOLECULE": "Cc1ccc(CC(=O)O)c(OCc2c3cc(-c4ccc5ccnc(N)c5c4)ccc3nn2C2CCC2)c1 [Compound 17e]",
    "MEASURED": "< 5.00"
  },
  {
    "MOLECULE": "CC(C)CCN1CC(Cn2nc(COc3ccccc3CC(=O)O)c3cc(-c4ccc5ccnc(N)c5c4)ccc32)C1 [Compound 307c]",
    "MEASURED": "> 6.00"
  },
  {
    "MOLECULE": "Nc1nccc2ccc(-c3ccc4c(c3)c(COc3ccccc3CC(=O)O)nn4C3CCOC3)cc12 (stereo not drawn) [Compound 250b]",
    "MEASURED": "> 6.00"
  },
  {
    "MOLECULE": "Nc1nccc2ccc(-c3cc(F)c4c(c3)C(Oc3ccccc3CC(=O)O)CC4)cc12 (stereo not drawn) [Compound 207e]",
    "MEASURED": "> 6.00"
  },
  {
    "MOLECULE": "COc1cc(-c2ccc3ccnc(N)c3c2)cc2c(COc3c(C)cccc3CC(=O)O)coc12 [Compound 237c]",
    "MEASURED": "< 5.00"
  },
  {
    "MOLECULE": "CC(C)CCN1CCC(n2nc3ccc(-c4ccc5ccnc(N)c5c4)cc3c2COc2ccccc2CC(=O)O)CC1 [Compound 131h]",
    "MEASURED": "> 6.00"
  },
  {
    "MOLECULE": "Cc1cccc(OC2CC3(CCN(C(=O)OCC(C)C)CC3)c3ccc(-c4cccc5c(N)nccc45)cc32)c1CC(=O)O (stereo not drawn) [Compound 451b]",
    "MEASURED": "> 6.00"
  },
  {
    "MOLECULE": "Nc1nccc2ccc(-c3ccc4c(c3)c(COc3ccccc3CC(=O)O)nn4C3CCC(F)(F)C3)cc12 (stereo not drawn) [Compound 266b]",
    "MEASURED": "> 6.00"
  },
  {
    "MOLECULE": "Nc1nccc2c(-c3ccc4c(c3)c(COc3ccccc3CC(=O)O)nn4C3CCCCO3)cccc12 (stereo not drawn) [Compound 92b]",
    "MEASURED": "> 6.00"
  }
]
